The origin of these recorded values is the RepoRT retention time repository (doi:10.1016/j.aca.2019.02.001).

test: RP, Agilent ZORBAX Eclipse XDB-C18, 100 × 2.1 mm, 1.8 µm, 50 °C, 0.4 mL/min, estimated dead time 0.55 min; A: water + 0.1% formic acid; B: methanol; gradient (min/%B) 0/30 2/30 5/52 15/65 20/78 22.5/78 29/90 38/100; settings: stereoisomer not certain
measured_quantity: LC retention time (min)

- CCCCCCCCCC(=O)O: 24.3

[P] O=C(O)c1cc(=O)c2ccccc2[nH]1
[Q] CCCCCCCCC=CCCCCCCCC(=O)O
Query: Could you kindly indicate whether P or Q has the higher LC retention time value? // respond with label for picked entry
Reply: Q

----------
assay: RP, Agilent ZORBAX Eclipse XDB-C18, 100 × 2.1 mm, 1.8 µm, 50 °C, 0.4 mL/min, estimated dead time 0.55 min; A: water + 0.1% formic acid; B: methanol; gradient (min/%B) 0/30 2/30 5/52 15/65 20/78 22.5/78 29/90 38/100; conditions: stereoisomer not certain
measured_quantity: LC retention time (min)

* CC(O)C(N)C(=O)O (stereo unspecified) | 6.29
* CCCC(=O)O | 11.8
* CC(CCC(=O)O)C1CCC2C3CCC4CC(O)CCC4(C)C3CCC12C (stereo unspecified) | 26.2
* O=C(O)c1cccnc1C(=O)O | 8.32
* NC(Cc1c[nH]c2ccccc12)C(=O)O (stereo unspecified) | 9.89
* CC(=O)NCCc1c[nH]c2ccc(O)cc12 | 12.2
* CCC(=O)O | 9.67
* CCCCCCCCC=CCCCCCCCCCCCC(=O)O | 32.9
* NCCCCN | 17.6
* NCC(=O)O | 5.85

[P] NCCCNCCCCNCCCN
[Q] NCCCCNCCCN
Query: Param metric = LC retention time; output whichever of P , Q has the minimum value. Choose, then provide that item's label.
Reply: P
(P: 6.5 min, Q: 9.8 min)

[1] CCCCCCCCC=CCCCCCCCCCC(=O)O
[2] O=C(O)Cc1c[nH]c2ccccc12
Query: Consider 1 and 2 . Which of these has its LC retention time at a higher number? Bench note: the answer is the label of the chosen record.
Reply: 1
